Listing: fold in parentheses (palivizumab = 1) of selected binders
Biological target: T1, RSV F glycoprotein (NUF4) (respiratory syncytial virus)
T1 chain 1: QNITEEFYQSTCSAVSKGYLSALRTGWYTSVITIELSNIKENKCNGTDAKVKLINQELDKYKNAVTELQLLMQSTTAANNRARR
T1 chain 2: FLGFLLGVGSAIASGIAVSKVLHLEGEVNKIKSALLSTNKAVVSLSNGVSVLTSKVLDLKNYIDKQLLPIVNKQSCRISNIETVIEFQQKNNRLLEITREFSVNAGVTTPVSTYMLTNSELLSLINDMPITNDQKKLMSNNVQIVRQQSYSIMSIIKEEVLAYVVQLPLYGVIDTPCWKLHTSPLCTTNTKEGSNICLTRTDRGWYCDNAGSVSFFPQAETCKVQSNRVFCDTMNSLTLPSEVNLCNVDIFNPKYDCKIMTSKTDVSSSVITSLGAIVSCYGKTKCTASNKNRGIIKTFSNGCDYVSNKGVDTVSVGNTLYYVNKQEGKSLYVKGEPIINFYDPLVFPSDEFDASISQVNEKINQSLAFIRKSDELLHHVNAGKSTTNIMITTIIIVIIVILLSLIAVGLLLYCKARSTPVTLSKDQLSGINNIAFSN
Experiment: SPR (BIAcore), mAb vs NUF4 (2:1)
MEASURED_PARAMETER: fold in parentheses (palivizumab = 1) (fold)

binder="P11d4 IgG (antibody, V domains shown) VH: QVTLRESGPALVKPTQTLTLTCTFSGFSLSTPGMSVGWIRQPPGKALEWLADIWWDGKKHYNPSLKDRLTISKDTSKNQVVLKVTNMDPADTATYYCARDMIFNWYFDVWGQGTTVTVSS VL: DIQMTQSPSTLSASVGDRVTITCSPSSRVGYMHWYQQKPGKAPKLLIYDTMRLASGVPSRFSGSGSGTEFTLTISSLQPDDFATYYCFQGSGYPFTFGGGTKVEIKR" meas_value=36
binder="P12f4 IgG (antibody, V domains shown) VH: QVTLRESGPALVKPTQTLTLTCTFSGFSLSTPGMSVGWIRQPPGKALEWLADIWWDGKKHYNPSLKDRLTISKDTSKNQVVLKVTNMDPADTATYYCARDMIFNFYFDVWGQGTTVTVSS VL: DIQMTQSPSTLSASVGDRVTITCSLSSRVGYMHWYQQKPGKAPKLLIYDTRGLPSGVPSRFSGSGSGTEFTLTISSLQPDDFATYYCFQGSGYPFTFGGGTKVEIKR" meas_value=134
binder="A4B4 IgG (antibody, V domains shown) VH: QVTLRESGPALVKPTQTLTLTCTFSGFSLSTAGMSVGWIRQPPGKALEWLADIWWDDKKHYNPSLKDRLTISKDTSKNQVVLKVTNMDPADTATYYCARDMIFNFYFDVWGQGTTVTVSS VL: DIQMTQSPSTLSASVGDRVTITCSASSRVGYMHWYQQKPGKAPKLLIYDTFFLDSGVPSRFSGSGSGTEFTLTISSLQPDDFATYYCFQGSGYPFTFGGGTKVEIKR" meas_value=156
binder="P12f2 IgG (antibody, V domains shown) VH: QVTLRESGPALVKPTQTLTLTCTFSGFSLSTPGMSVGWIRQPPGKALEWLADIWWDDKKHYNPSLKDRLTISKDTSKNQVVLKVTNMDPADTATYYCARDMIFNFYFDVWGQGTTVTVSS VL: DIQMTQSPSTLSASVGDRVTITCSLSSRVGYMHWYQQKPGKAPKLLIYDTFYLSSGVPSRFSGSGSGTEFTLTISSLQPDDFATYYCFQGSGYPFTFGGGTKVEIKR" meas_value=371
binder="A17d4(1) IgG (antibody, V domains shown) VH: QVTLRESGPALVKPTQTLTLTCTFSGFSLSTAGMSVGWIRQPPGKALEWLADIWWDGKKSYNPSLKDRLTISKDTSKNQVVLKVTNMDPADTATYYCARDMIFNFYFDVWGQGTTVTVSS VL: DIQMTQSPSTLSASVGDRVTITCLPSSRVGYMHWYQQKPGKAPKLLIYDTMYQSSGVPSRFSGSGSGTEFTLTISSLQPDDFATYYCFQGSGYPFTFGGGTKVEIKR" meas_value=281
binder="A13c4 IgG (antibody, V domains shown) VH: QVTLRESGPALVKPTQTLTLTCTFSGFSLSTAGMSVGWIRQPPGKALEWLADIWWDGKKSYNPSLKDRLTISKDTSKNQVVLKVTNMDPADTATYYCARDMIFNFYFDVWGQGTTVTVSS VL: DIQMTQSPSTLSASVGDRVTITCSLSSRVGYMHWYQQKPGKAPKLLIYDTMYQSSGVPSRFSGSGSGTEFTLTISSLQPDDFATYYCFQGSGYPFTFGGGTKVEIKR" meas_value=446
